# Procedure details: yeast display, Sf9 membrane polyspecificity reagent, FACS + sequencing; frameworks hold sequencing errors
Result type: polyreactivity (PSR sort gate)

QVQLEESGGGLVQAGGSLRLSCAASGSICWLYAMGWYRQAPGKERELVAAIDSGDSTKYADSVKGRFTISRDNAKNTVYLQMNSLIPEDTAVYYCNASRRYHVRAPYDYWGQGTQVTVSS :: low polyreactivity
QVQLVESGGGLVQAGGSLRLSCAASGRTFTIYAMGWYRQAPGKEREFVASITGSDGSTYYADSVKGRFTISRDNAKNTVYLQMNSLKPEDTAVYYCAAATSSAYDYWGQGTQVTVSS :: low polyreactivity
QVQLVESGGGLVQAGGSLRLSCAASGRTFIYYAMGWYRQAPGKERELVAAITYSGTSTYYADAVKGRFTISRDNAKNTVYLQMNSLKPEDTAVYYCAKDGQRDAKYNWGQGTQVTVSS :: low polyreactivity
HVQLVESGGGLVQAGGCLRLSCAASGRICIFYAMGWYRQAPGKERELVAAISSGPSTTYADSVKGRFTISRDNAKNTVYLQMNSLNPEDTAVYSCARRDGTTQALFGYDYWGQGTQVTVSS :: low polyreactivity
QVQLVESGGGLVQAGGSLRLSCAASGFIFSKYTMGWSRQAPGKERELVASISWSGGSTYYADSVKGRFTISRDTAKNTVFLQMNSLKPEDTAVYYCAAEAWGWVFGGYYYWGQGTQVTVSS :: low polyreactivity

For every item in the list below, what is its measured polyreactivity (PSR sort gate)?
1. QVQLVESGGGLVQAGGSLRLSCAASGYTFDWYTMGWYRQAPGKERELVAAISASGVRTYYADSVKGRFTISRDNAKNTVYLQMNSLKPEDTAVYYCNRVYSTSRITQYEFDYWGQGTQVTVSS
2. QVQLVESGGGLVQAGGSLRLSSAASGSTFTSYAMGWYRQAPGNEWELVAAINSGGGTNYADSVKGRFTISRDNAKNTVYLQMNSLKPEDTAVYYCAKSRYDYTKTEGGYWGQGTQGTVSS
3. QVQLLESGGGLVQAGGSLRLSCAASGRTFRINARGWYRQAPGKEREFVAAINYRGGSTYADSVKGRFTISRDNAKNTVYVQMNSLKPEDPAVYYCAAYATLWYYTGVHRGGFENWGQGSQVTVSS
4. QVQLVESGGGIVQAGGSLRLSCAASGFTFYYNAMGWYRQAPGKERELVAAISYRGGSTYYADSVKGRFTISRDNAKNTVYFQMNSLKPEDTAVYYCATRDPAFYRRYDYWGQATQVTVSS
5. QVQLVESGGGLVQAGGSLRLSCAASGSTRGYAMGWYRQAPGKEREMVAAIRSSGSTNYADSVKGRFTISRDNAKNTVYLQMNSLKPEDTAVYFCATDGHYLYSWYKYDYWGQGTQVTVSS

Result:
low polyreactivity
low polyreactivity
high polyreactivity
high polyreactivity
low polyreactivity

Q: Input QVQLVESGGGLVQAGGSLRLSCAASGYTLRYYAMGWYRQAPGKERELVAAITYSGGSTYYADSVKGRFTISRDHAKNTVYLQMNSLKPEDTAVYYCAADYRAPLDYWGQGTQVTVSS , output reported polyreactivity (PSR sort gate).
Result: low polyreactivity

----------
# Procedure details: yeast display, Sf9 membrane polyspecificity reagent, FACS + sequencing; frameworks hold sequencing errors
Result type: polyreactivity (PSR sort gate)

Take a look at these entries with their results.
QVQLVESGGGLVQAGGSLRLSCAASGIIFDINAMGWYRQAPGKERELVAAITTSVDSTYYADSVKGRFTISRDNAKNTVYLQMNSLKPEDTAVYYCAVAFVQFTQYDYWGQGTQVTVSS :: low polyreactivity
QVQLVESGGGLVQAGGSLRLSCAASGSTFSYYAMGWYRQAPGKERELVAAISSRGGSTYYADSVKGRFTISRDNAKNTVYLQMNSLKPEDTAVYYCNADHQFRSSVSGDHDYWGQGTQVTVSS :: high polyreactivity
QVQLVESGGCLVQAGGSLRLSCAASRRIYYYTMGWYRQPPGKERELGATITSSGSSTYYADSVKGRFTISRDNAMNTVYLQMNSLKPEDTAVYYCAAGDRRYQRRYYYWGQGTQVTVSS :: high polyreactivity
QVQLVESGGGFVQAGGSLLVSCAASGFTFRYSAMGWYRQAPGKERELVAAIDQNSGRTYYADSGKGRFTISRDNAKNTVYLQMNSLKPEDTAVYYCNVGYPKVPAGSYDYWGQGTQVTVSS :: high polyreactivity

// next item, polyreactivity (PSR sort gate) requested
Q: Input QVQLVESGGCLVQAGGSLRLSCAASGSIFGENAMGWYRQAPGKERELVAAITSGGSTDYADSVKGRFTISRDNAKNTVYLQMNSLKTEDTAVYYCAASGRVGPGYWYDSWGQGTQVTVSS , output reported polyreactivity (PSR sort gate).
Result: low polyreactivity

----------
# Procedure details: yeast display, Sf9 membrane polyspecificity reagent, FACS + sequencing; frameworks hold sequencing errors
Result type: polyreactivity (PSR sort gate)

Take a look at these entries with their results.
QVQLVESGGGLVQAGGSLRLSCAASGSTIGRYTMGWYRQAPGKERELVAAITGSGAGTYYADSVKGRFTISRDNAKNTVYLQMNRLKPEDTAVYYCNTVFRGGQFRYVRGVKYGYWGQGTQVTVSS :: high polyreactivity
QVQLEESGGGLVQAGGSLRLSCAASGSIFYSYAMGWYRQAPGNERELVAAITRGGSTYYADSVKGRFTISRDNAKNTVYLQMNSLKPEDTAVYYCAADSQYGWPEYEYDYWGQGTQVTVSS :: low polyreactivity
QVQLVESGGGLVQAGGSLRLSCAASGNTFIRNVMGWYRQAPGKERELVAGIRTGGSTFYADSVKGRFTISRDNAKNTVYLQMNSLKPEDTAVYYCNADVGDEGNLPYVIRPMDYWGQGTQVTVSS :: low polyreactivity
QVQLVESGGGLVQAGGSLRLSCAASGSNFGYYAMGWYRQAPGQERELVAAINSSGGSTYYADSVKGRFTISRDNAKNTVYLQMNSLKPEDTAVYYCAVRTRYKFNYWGQGTQVTVSS :: low polyreactivity
QVQLVESGGGLVQAGGSLRLSCAASGRTFGLYAMGWYRQAPGKERELVAAISYSGGRTYYADSVKGRFTISRDNAKKTVYLQRNSLKPEDTAVYYCNKAWFPYYYYRFDYWGQGTQVTVSS :: high polyreactivity

For every item in the list below, what is its measured polyreactivity (PSR sort gate)?
1. QVQLLESGGGLVQAGGSRRLSCASSGITFAFYAMGWYRQAPGKESELVAAISWSGTRTYYADSVKGRFTISRDNAKNTVYLQMNRLKPEDTAVYYCAAVYQAGDKLYDYWGQGTQVTVSS
2. QVQLVESVGGLVQAGGSLRLSCAASGRMFAKYAMGWYRQAPGKERELVPISSSVGRTYYADSVKGRFTISRDNAKNTVSLHMHSLKPEDTAVYYCNAKPRWYVPYDYSGQGTQVTVSS

Result:
1. low polyreactivity
2. high polyreactivity

For every item in the list below, what is its measured polyreactivity (PSR sort gate)?
1. QVQLEESGGGLVQAGGSLRLSCAASGRTFRYYAMGWSRQAPGKERELVAAISWSGSSTYYADSVKGRFTISRDNAKNTVYLQMNSLKAEDTAVYYCNAKGVRGKYFDYSRVSAYDYWGQGTQVTVSS
2. QVQLVESGGGLVQAGGSLRLSCAASGITFSSYAMGWYRQAPGKERELVAAISYGGGNTYYADSVKGRFTISRDNAKNTVYLQMNSLKPEDTAVYYCNTLYTSYSGLDYWGQGTQVTVSS
3. QVQLEDSGGGLVQAGGSLRLSCAASGGIFLTYTMGWYRQAPGKEREFVAAIRSSSGRTYYADSVKGRFTISRDNAKNTVYLQMISLKPEDTSVYYCNAKYYGYRVGKYYPFGYWGQGTQVTVSS

Result:
["low polyreactivity", "high polyreactivity", "high polyreactivity"]

For every item in the list below, what is its measured polyreactivity (PSR sort gate)?
1. QVQLVESGGGLVQAGGSLRLSCAASGSTFYPNAMGWYIQAPGKERELVADITISGGRTYYADSVKGLFTISRDNAKNTVYLQMNSLKPEDTAVYYCNTRGIFFQSQTHDYWGQGTQVTVSS
2. QDQLVESGGGLVQAGGSHRLSCAASGFIIGYYAMGWYRQAPGKEMELVASIRRGGSTYYADSVKGRFTISRDNAKNTVYLQMNSLKPEDTAVYYCAAQRSVVGWWSRTSLYGDSDYWGLGTQVTVSS
3. QGQLVESGGGLVQAGGSLRLSCAASGLIFYPNGMGWYREAPGKERELVAAITYSDGSTYYADSVKGRFTISRDNAKNTVYLQMNSLKAEDTAVYYCNRVTRWTYNYWGQGTQVTVSS
4. QVQVVESGGGLVQPGGSLRVSCAASGSTFIAYVKGWSRQAPGKEWELVAAISWSGSNTYYADSVKGRFTISRDNAKITVYFQMNCLKPEDTAVYYCNARSFAPDKKYDYWGQGTQVTVSS
5. QVQLVESGGGLVQAGGSLRLSCAASGRIFSIYGMGWYRQAPGKERELVAVISGSVGITYYADSVKGRFTISRDNAKNTVYLQMNSLKPEDTAVYYCNAKFRRRKYDYWGQGTQVTVSS
6. QVQIVESGGGLVQAGGSLRLSCAASGRIFVGYAMGWYRQAPGKERELFAAISRDGDNTFYADSVKGRFTISRDNAKNTVYLQMNSLKPEDTAVYYCAVDFCVWYGSAYAYDYYWGQGTQVTVSS

Result:
1: low polyreactivity; 2: high polyreactivity; 3: high polyreactivity; 4: low polyreactivity; 5: high polyreactivity; 6: low polyreactivity
